I'd appreciate it if you could supply Ki values for the items below.
target: serotonin 1A receptor (Rattus norvegicus, UniProt P19327); construct: To the receptor fraction of the hippocampus were added a test compound and 0.5 nM of [^3H]; 8-hydroxy-dipropylaminotetralin; from tissue; host or cells: rat hippocampus membrane fraction; assay: Binding test on [3H] 8-hydroxy-dipropylaminotetralin, hippocampus receptor fraction; set-up: species or system SD rats; conditions: rat hippocampus receptor fraction, 0.5 nM [3H] 8-OH-DPAT, room temperature 30 min; read-out: 5HT1
Sequence (P19327 whole entry): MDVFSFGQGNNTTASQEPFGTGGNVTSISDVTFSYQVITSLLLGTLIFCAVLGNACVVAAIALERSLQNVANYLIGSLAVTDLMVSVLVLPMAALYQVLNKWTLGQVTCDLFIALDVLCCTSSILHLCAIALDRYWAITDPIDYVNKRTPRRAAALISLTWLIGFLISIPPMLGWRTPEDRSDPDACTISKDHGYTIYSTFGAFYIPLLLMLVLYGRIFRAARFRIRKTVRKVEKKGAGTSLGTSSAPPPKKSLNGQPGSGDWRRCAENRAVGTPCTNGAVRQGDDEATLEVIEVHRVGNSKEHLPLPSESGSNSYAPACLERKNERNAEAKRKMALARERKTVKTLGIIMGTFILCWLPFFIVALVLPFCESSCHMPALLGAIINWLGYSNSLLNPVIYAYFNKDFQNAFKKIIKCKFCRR
Where a name gives a salt, the structure may show the parent alone.
Reply with a number, then the unit it belongs to.

Answered examples (5):
CCN1CCN(c2nc(-c3ccc(OC(C)COC)nc3)cc3ccsc23)CC1 (stereo not drawn) [Example 267, Hydrochloride] = 10.4 nM
CCN1CCN(c2nc(-c3ccc(CCCF)cn3)cc3ccccc23)CC1 [Example 132] = 1.5 nM
CCN1CCN(c2nc(-c3ccc(OCC(C)O)cc3)cc3sccc23)CC1 (stereo not drawn) [Example 287] = 27.9 nM
CCN1CCN(c2nc(-c3ccc(C4=CCOCC4)nc3)cc3ccccc23)CC1 [Example 155, oxalate] = 20 nM
CCS(=O)(=O)NCc1ccc(-c2cc3ccccc3c(N3CCN(CCO)CC3)n2)cc1 [Example 243, Hydrochloride] = 13 nM

Working through the 6 molecules below one at a time, give Ki for each.
1. CCN1CCN(c2nc(N3CCN(c4ccccc4)CC3)cc3ccccc23)CC1 [Example 158]
2. CCN1CCN(c2nc(-c3ccc(N4CCC(O)CC4)nc3)cc3ccccc23)CC1 [Example 152, trihydrochloride]
3. CCN1CCN(c2nc(-c3ccc(C(C)(C)CCO)cc3)cc3ccsc23)CC1 [Example 443, dihydrochloride]
4. CCN1CCN(c2nc(-c3ccc(OC)cc3)cc3cccc(F)c23)CC1 [Example 233, dihydrochloride]
5. CCN1CCN(c2nc(-c3ccc(NCCO)cc3)cc3ccccc23)CC1 [Example 67, Hydrochloride]
6. CCN1CCN(c2nc(-c3ccc(OCCCNC(C)=O)cc3)cc3ccccc23)CC1 [Example 50, Hydrochloride]

["0.41 nM", "6.1 nM", "10.2 nM", "200 nM", "27.3 nM", "25.2 nM"]

Parameter requested: Ki. Apply to each item below.
1. CCN1CCN(c2nc(-c3ccc(C(=O)NC4CCCCC4)cc3)cc3ccsc23)CC1 [Example 273, dihydrochloride]
2. CCN1CCN(c2nc(-c3ccc(OCCCC(C)(C)O)cc3)cc3sccc23)CC1 [Example 292]
3. CCN1CCN(c2nc(-c3ccc(CCC(C)O)nc3)cc3ccccc23)CC1 (stereo not drawn) [Example 136]
4. CCN1CCN(c2nc(-c3ccc(/C=N/O)cc3)cc3ccccc23)CC1.Cl [Example 61, Hydrochloride]
5. CCN1CCN(c2nc(-c3ccc(C(O)c4nccs4)cc3)cc3ccccc23)CC1 (stereo not drawn) [Example 412]
6. CCN1CCN(c2nc(/C=C/c3cccc(OCCO)c3)cc3ccccc23)CC1 [Example 199, Oxalate]

1: 51.4 nM; 2: 68.6 nM; 3: 3.7 nM; 4: 11.7 nM; 5: 19.1 nM; 6: 3.27 nM

Parameters: items (list). Returns: Ki for each item.
1. CCC(C)NS(=O)(=O)c1ccc(-c2cc3ccccc3c(N3CCN(CC)CC3)n2)cc1 (stereo not drawn) [Example 360, dihydrochloride]
2. CCN1CCN(c2nc(-c3ccc(C4=CCOCC4)s3)cc3ccccc23)CC1 [Example 176, Hydrochloride]
3. CCN1CCN(c2nc(-c3ccc(CC(C)(C)O)cc3)cc3ccccc23)CC1 [Example 377, Oxalate]
4. CCN1CCN(c2nc(-c3ccc(C4CCOCC4)s3)cc3ccccc23)CC1.Cl [Example 166, hydrochloride]
5. CCC(O)c1ccc(-c2cc3ccccc3c(N3CCN(CC)CC3)n2)s1 (stereo not drawn) [Example 165, hydrochloride]
6. CCN1CCN(c2nc(-c3ccc(S(=O)(=O)N4CCSCC4)cc3)cc3ccccc23)CC1 [Example 76, Hydrochloride]

["2 nM", "155 nM", "28.5 nM", "81.9 nM", "32.6 nM", "5.7 nM"]

Would you mind listing Ki for each of the following molecules?
1. CCN1CCN(c2nc(-c3ccc(S(=O)(=O)N(C)C)cc3)cc3ccccc23)CC1 [Example 362, dihydrochloride]
2. CCN1CCN(c2nc(-c3ccc(O[C@H](C)CO)cc3)cc3sccc23)CC1 (stereo in doubt) [Example 463, dihydrochloride]
3. CCN1CCN(c2nc(-c3ccc(C(O)CC(C)(C)O)cc3)cc3ccccc23)CC1 (stereo not drawn) [Example 25]
4. CCN1CCN(c2nc(-c3ccc(OCCO)cc3)cc3ccsc23)CC1 [Example 259, Hydrochloride]

1. 4.5 nM
2. 6.98 nM
3. 21.5 nM
4. 9.26 nM

Values from patent US6875761B2
